- targetSystem: Keap1 Kelch domain (321-609) / TAMRA-labeled 16mer NRF2 peptide (ETGE motif) (Homo sapiens, UniProt Q14145)
- Construct: the Kelch domain (321-609) of Keap1 is used
- Sequence (Q14145 321-609): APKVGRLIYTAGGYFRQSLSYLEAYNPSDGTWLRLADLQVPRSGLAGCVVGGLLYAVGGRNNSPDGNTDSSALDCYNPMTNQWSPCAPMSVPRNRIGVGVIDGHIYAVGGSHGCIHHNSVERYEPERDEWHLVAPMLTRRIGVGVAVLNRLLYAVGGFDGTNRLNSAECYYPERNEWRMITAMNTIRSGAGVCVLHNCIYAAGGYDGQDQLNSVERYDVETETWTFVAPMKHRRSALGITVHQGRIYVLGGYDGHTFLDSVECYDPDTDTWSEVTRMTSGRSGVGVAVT
- assayText: NRF2-Keap1 FP Assay (Keap1 Kelch fluorescence polarization)
- Type: binding
- conditionsUsed: 20 nM Keap1 (321-609), 8 nM Tamra labeled peptide
parameterMeasured: IC50

{"columns": ["compound", "result"],
 "data": [
  ["CCC[C@@H]1CCCCN1C(=O)c1cccc(-c2cccc(-n3ncc(C(=O)O)c3C3CC3c3cnn(C)c3)c2)c1F (stereo partly drawn)", "10 to 100 nM"]
]}

Batch lookup, IC50 per entry.
1. CC(Oc1cccc(-c2cccc(-n3ncc(C(=O)O)c3[C@H]3C[C@@H]3c3cn(C)nn3)c2)c1)c1ccc(-c2ccccc2)cc1 (mixture of isomers)
2. C[C@H](Oc1cccc(-c2cccc(-n3ncc(C(=O)O)c3[C@@H]3C[C@H]3c3cn(C4CN(C(=O)OC(C)(C)C)C4)nn3)c2)c1)C1CCCCC1 (racemic)
3. CCCC1CCCCN1C(=O)c1cccc(-c2cccc(-n3ncc(C(=O)O)c3C3CC3c3cccnc3)c2)c1 (stereo not drawn)
4. CC1(C)CCc2cnn(-c3cccc(-c4cccc(-n5ncc(C(=O)O)c5C(F)(F)F)c4)c3)c21
5. Cn1cc(C2CC2c2c(C(=O)O)cnn2-c2cccc(-c3cccc(OCC4CCN(C(=O)OC(C)(C)C)CC4)c3)c2)nn1 (stereo not drawn)

Resp:
1. 100 to 1000 nM
2. 100 to 1000 nM
3. 100 to 1000 nM
4. 100 to 1000 nM
5. 10 to 100 nM

###

Kindly supply the reported EC50 values for the records listed here.
- Tested on: NQO1 specific enzyme activity in BEAS-2B cells (marker for NRF2 activation)
- assayText: BEAS-2B NQO1 MTT Assay
- Type: cell-based
- conditionsUsed: Homo sapiens, BEAS-2B, 48 h, compound incubated 48 hours, read-out: EC50 (NQO1 specific enzyme activity induction)

Check out these entries, answers already filled in.
{"columns": ["compound", "targetSystem", "result"],
 "data": [
  ["O=C(O)c1cnn(-c2cccc(-c3cccc(-n4ncc5c4CCC5)c3)c2)c1C1CC1", "NQO1 specific enzyme activity in BEAS-2B cells (marker for NRF2 activation)", "100 to 1000 nM"],
  ["CCC[C@@H]1CCCCN1C(=O)c1cccc(-c2cccc(-n3ncc(C(=O)O)c3C3CC3(F)F)c2)c1 (stereo partly shown)", "NQO1 specific enzyme activity in BEAS-2B cells (marker for NRF2 activation)", "100 to 1000 nM"],
  ["CCC[C@@H]1CCCCN1C(=O)c1cccc(-c2cc(Cl)cc(-n3ncc(C(=O)O)c3C3CC3c3cn(C)nn3)c2)c1 (stereo partly shown)", "NQO1 specific enzyme activity in BEAS-2B cells (marker for NRF2 activation)", "100 to 1000 nM"]
]}

Batch lookup, EC50 per entry.
1. CCC[C@@H]1CCCCN1C(=O)c1cccc(-c2cc(C)cc(-n3ncc(C(=O)O)c3[C@@H]3C[C@H]3c3cn(C)nn3)c2)c1 (single isomer, unassigned)
2. CCCC1CCCCN1C(=O)c1cccc(-c2cccc(-n3ncc(C(=O)O)c3C3CC3c3cccnc3)c2)c1 (stereo not shown)
3. CCC[C@@H]1CCCCN1C(=O)c1cccc(-c2cccc(-n3ncc(C(=O)O)c3C3CC3c3cnn(C)c3)c2)c1F (stereo partly shown)
4. CCC[C@@H]1CCCCN1C(=O)c1cccc(-c2cccc(-n3ncc(C(=O)O)c3C3CC3c3cn(C)nn3)c2)c1F (stereo partly shown)
5. CC(Oc1cccc(-c2cccc(-n3ncc(C(=O)O)c3C3CC3c3cn(C)nn3)c2)c1)C1CCCCC1 (stereo not shown)
6. CCC[C@@H]1CCCCN1C(=O)c1cccc(-c2cccc(-n3ncc(C(=O)O)c3[C@@H]3C[C@H]3c3cn(C)nn3)c2)c1 (racemic) [Example 199]
7. CC(Oc1cccc(-c2cccc(-n3ncc(C(=O)O)c3[C@H]3C[C@@H]3c3cn(C)nn3)c2)c1)C1CCCCC1 (stereo partly shown) [Example 165]

Resp:
1: 100 to 1000 nM; 2: 1000 to 10000 nM; 3: 100 to 1000 nM; 4: 10 to 100 nM; 5: 10 to 100 nM; 6: 10 to 100 nM; 7: 1 to 10 nM

###

Kindly supply the reported pIC50 values for the records listed here.
- targetSystem: Keap1 Kelch domain (321-609) / TAMRA-labeled 16mer NRF2 peptide (ETGE motif) (Homo sapiens, UniProt Q14145)
- Construct: the Kelch domain (321-609) of Keap1 is used
- assayText: NRF2-Keap1 FP Assay (Keap1 Kelch fluorescence polarization)
- conditionsUsed: 20 nM Keap1 (321-609), 8 nM Tamra labeled peptide
pIC50: −log10 of the molar value.

Check out these entries, answers already filled in.
{"columns": ["compound", "pIC50"],
 "data": [
  ["Cc1ccnn1-c1cccc(-c2cccc(-n3ncc(C(=O)O)c3C3CC3)c2)c1", "6.00 to 7.00"],
  ["C[C@H](Oc1cccc(-c2cccc(-n3ncc(C(=O)O)c3[C@@H]3C[C@H]3c3cn(C4CCN(C)CC4)nn3)c2)c1)C1CCCCC1 (racemic)", "7.00 to 8.00"],
  ["CCC[C@@H]1CCCCN1C(=O)c1cncc(-c2cccc(-n3ncc(C(=O)O)c3C3CC3c3cn(C)nn3)c2)c1 (stereo partly drawn)", "7.00 to 8.00"],
  ["Cn1cc([C@@H]2C[C@H]2c2c(C(=O)O)cnn2-c2cccc(-c3cccc(S(=O)(=O)N4Cc5ccccc5OC(C)(C)C4)c3)c2)nn1 (racemic)", "7.00 to 8.00"],
  ["COCCC(COc1cccc(-c2cccc(-n3ncc(C(=O)O)c3C3CC3c3cn(C)nn3)c2)c1)C1CCCCC1 (stereo not drawn)", "7.00 to 8.00"]
]}

As a next step, examine the compound that follows.
Req: Return the recorded pIC50 value; entry: O=C(O)c1cnn(-c2cccc(-c3cccc(C(=O)N4CCOC5(CCCC5)C4)c3F)c2)c1C1CC1
Resp: 7.00 to 8.00

###

- targetSystem: full length Keap1 protein / full length NRF2 protein (Homo sapiens)
- Construct: full length NRF2 protein and full length Keap1 protein (Keap1 exists a dimer) are used; His
- Sequence (Q14145 whole entry): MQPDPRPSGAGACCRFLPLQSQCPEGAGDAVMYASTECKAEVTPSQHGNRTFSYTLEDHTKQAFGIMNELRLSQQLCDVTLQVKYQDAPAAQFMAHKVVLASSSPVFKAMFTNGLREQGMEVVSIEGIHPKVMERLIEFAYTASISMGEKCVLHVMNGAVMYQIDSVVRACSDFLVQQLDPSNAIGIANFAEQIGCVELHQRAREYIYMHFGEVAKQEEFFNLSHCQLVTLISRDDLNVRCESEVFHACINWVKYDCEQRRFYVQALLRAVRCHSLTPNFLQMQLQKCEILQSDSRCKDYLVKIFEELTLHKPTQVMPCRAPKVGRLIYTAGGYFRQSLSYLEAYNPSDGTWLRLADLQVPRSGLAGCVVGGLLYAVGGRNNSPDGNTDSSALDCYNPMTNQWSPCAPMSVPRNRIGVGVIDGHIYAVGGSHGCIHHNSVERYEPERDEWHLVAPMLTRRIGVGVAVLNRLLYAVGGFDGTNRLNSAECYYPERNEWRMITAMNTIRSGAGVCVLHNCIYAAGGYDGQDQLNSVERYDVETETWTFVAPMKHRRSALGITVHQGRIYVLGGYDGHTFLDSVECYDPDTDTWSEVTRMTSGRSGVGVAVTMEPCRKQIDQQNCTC
- assayText: NRF2-Keap1 TR-FRET Low Protein Assay
- Format: binding
- conditionsUsed: 1.25 nM Keap1 FlagHis and 2.5 nM biotin-NRF2 added
Kindly supply the reported IC50 values for the records listed here.

Check out these entries, answers already filled in.
{"columns": ["compound", "parameterMeasured", "result"],
 "data": [
  ["C[C@H](Oc1cccc(-c2cccc(-n3ncc(C(=O)O)c3[C@@H]3C[C@H]3c3cn(C)nn3)c2)c1)C1CCCCCC1", "IC50", "< 10 nM"],
  ["COC(c1cccc(-c2cccc(-n3ncc(C(=O)O)c3C3CC3c3cn(C)nn3)c2)c1)C1CCCCC1 (stereo not drawn)", "IC50", "10 to 100 nM"],
  ["CC(Oc1cccc(-c2cc(O)cc(-n3ncc(C(=O)O)c3[C@H]3C[C@@H]3c3cn(C)nn3)c2)c1)C1CCCCC1 (mixture of isomers)", "IC50", "10 to 100 nM"],
  ["C[C@H](Oc1cccc(-c2cccc(-n3ncc(C(=O)O)c3[C@@H]3C[C@H]3c3cn(Cc4ccccc4)nn3)c2)c1)C1CCCCC1 (racemic)", "IC50", "100 to 1000 nM"],
  ["CC(Oc1cccc(-c2cccc(-n3ncc(C(=O)O)c3[C@H]3C[C@@H]3c3cn(C)nn3)c2)c1)C1CCCCCC1 (mixture of isomers)", "IC50", "10 to 100 nM"]
]}

As a next step, examine the compound that follows.
Req: Provide the reported IC50 (system: full length Keap1 protein / full length NRF2 protein (Homo sapiens)) for Cn1cc([C@@H]2C[C@H]2c2c(C(=O)O)cnn2-c2cccc(-c3cccc(CCC4CCCCC4)c3)c2)nn1 (racemic)
Resp: 10 to 100 nM

###

- targetSystem: full length Keap1 protein / full length NRF2 protein (Homo sapiens)
- Construct: full length NRF2 protein and full length Keap1 protein (Keap1 exists a dimer) are used; His
- assayText: NRF2-Keap1 TR-FRET Low Protein Assay
- Assay type: binding
- conditionsUsed: 1.25 nM Keap1 FlagHis and 2.5 nM biotin-NRF2 added
- Method: NRF2-Keap1 TR-FRET Low Protein Assay In the NRF2-Keap1 TR-FRET (time-resolved fluorescence resonance energy transfer) low protein assay, full length NRF2 protein and full length Keap1 protein (Keap1 exists a dimer) are used. […] Plates are spun at 500 rpm for 1 minute, incubated for 1 hour at RT, and read on an Envision plate reader using a 320 nm excitation filter and 615 nm and 665 nm emission filters. […]
parameterMeasured: IC50

Check out these entries, answers already filled in.
{"columns": ["compound", "result"],
 "data": [
  ["CCN1CCN(Cc2cccc(-c3cccc(-n4ncc(C(=O)O)c4[C@@H]4C[C@H]4c4cn(C)nn4)c3)c2)S(=O)(=O)c2ccccc21", "< 10 nM"],
  ["CCC[C@@H]1CCCCN1C(=O)c1cccc(-c2cccc(-n3ncc(C(=O)O)c3[C@H]3C[C@@H]3c3cn(CC)nn3)c2)c1 (racemic)", "< 10 nM"],
  ["C[C@@H]1CCC[C@H](C)N1C(=O)c1cccc(-c2cccc(-n3ncc(C(=O)O)c3[C@@H]3C[C@H]3c3cn(C)nn3)c2)c1F (single isomer, unassigned)", "< 10 nM"],
  ["C[C@@H](Oc1cccc(-c2cccc(-n3ncc(C(=O)O)c3[C@@H]3C[C@H]3c3cn(C)nn3)c2)c1)C1CCCCCC1", "10 to 100 nM"],
  ["CC[C@@H]1c2ccccc2OC(C)(C)CN1Cc1cccc(-c2cccc(-n3ncc(C(=O)O)c3[C@@H]3C[C@H]3c3cn(C)nn3)c2)c1 (single isomer, unassigned; isomer 2)", "< 10 nM"]
]}

Batch lookup, IC50 per entry.
1. Cn1cc([C@@H]2C[C@H]2c2c(C(=O)O)cnn2-c2cccc(-c3cccc(OC(C4CCCCC4)C(F)(F)F)c3)c2)nn1 (mixture of isomers)
2. C[C@H](Oc1cccc(-c2cccc(-n3ncc(C(=O)O)c3[C@@H]3C[C@H]3c3cnn(C)c3)c2)c1)C1CCCCC1 (racemic)
3. CCC[C@@H]1CCCCN1C(=O)c1cccc(-c2cccc(-n3ncc(C(=O)O)c3C3CC3)c2)c1F [Example 54e]
4. C[C@@H]1CCC[C@H](C)N1C(=O)c1cccc(-c2cccc(-n3ncc(C(=O)O)c3C3CC3)c2)c1F
5. Cn1cc(C2CC2c2c(C(=O)O)cnn2-c2cccc(-c3cccc(C(=O)CC4CCCCC4)c3)c2)nn1 (stereo not shown)
6. CCC[C@@H]1CCCCN1C(=O)c1cccc(-c2cccc(-n3ncc(C(=O)O)c3[C@H]3C[C@@H]3c3cn(C(C)C)nn3)c2)c1 (racemic)
7. COC1CCCCC1COc1cccc(-c2cccc(-n3ncc(C(=O)O)c3[C@H]3C[C@@H]3c3cn(C)nn3)c2)c1 (mixture of isomers)

Resp:
["10 to 100 nM", "1000 to 10000 nM", "100 to 1000 nM", "100 to 1000 nM", "10 to 100 nM", "< 10 nM", "100 to 1000 nM"]
